Where these numbers come from: patent US20250320206A1

# test.system: STAT6 (Homo sapiens)
# Construct: These cells express endogenous STAT6; host or cells: HeLa LgBiT clone 4.14
# Sequence (P42226 1-847): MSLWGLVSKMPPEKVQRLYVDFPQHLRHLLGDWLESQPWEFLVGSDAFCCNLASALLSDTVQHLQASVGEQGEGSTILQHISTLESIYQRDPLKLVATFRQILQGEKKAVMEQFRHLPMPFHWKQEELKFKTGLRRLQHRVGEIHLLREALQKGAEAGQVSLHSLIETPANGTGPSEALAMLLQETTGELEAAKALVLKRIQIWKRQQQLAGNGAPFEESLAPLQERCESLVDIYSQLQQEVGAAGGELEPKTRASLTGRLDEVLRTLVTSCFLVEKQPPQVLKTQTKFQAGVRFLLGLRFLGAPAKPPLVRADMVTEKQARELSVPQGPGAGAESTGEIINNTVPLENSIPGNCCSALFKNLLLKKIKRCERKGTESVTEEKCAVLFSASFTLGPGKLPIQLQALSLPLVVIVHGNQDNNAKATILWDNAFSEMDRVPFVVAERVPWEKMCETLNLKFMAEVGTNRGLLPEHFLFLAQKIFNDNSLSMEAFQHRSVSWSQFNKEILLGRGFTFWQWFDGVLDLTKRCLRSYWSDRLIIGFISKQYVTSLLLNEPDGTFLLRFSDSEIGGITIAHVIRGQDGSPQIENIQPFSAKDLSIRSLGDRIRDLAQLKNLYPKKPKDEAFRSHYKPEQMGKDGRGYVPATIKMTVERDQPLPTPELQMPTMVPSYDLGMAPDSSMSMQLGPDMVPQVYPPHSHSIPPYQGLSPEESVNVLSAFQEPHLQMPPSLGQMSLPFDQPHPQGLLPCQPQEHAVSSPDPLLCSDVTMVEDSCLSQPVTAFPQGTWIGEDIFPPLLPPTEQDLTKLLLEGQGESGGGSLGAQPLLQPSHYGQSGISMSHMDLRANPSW
# method: Stat6 Degrader Assay (HiBiT based, HeLa LgBiT clone 4.14)
# Format: cell-based
# particulars: HeLa LgBiT clone 4.14 HiBiT-STAT6, 4-24 h incubation; values given for compounds with >80% Emax; geometric mean; read-out: STAT6 degradation DC50
assay.readout: DC50 (nM)

1: CNc1ccn(-c2ccnc3c2cc(CN2CCC(c4c(F)cc(C(=O)N5CCC(CN6CCN(Cc7ccc8c(c7)C7(CC7)C(=O)N8[C@@H]7CCC(=O)NC7=O)C[C@@H]6C)CC5)cc4F)CC2)n3C)c(=O)c1 (single isomer, unassigned) [Example 3u224]
2: CNc1ccn(-c2ccnc3c2cc(CN2CC=C(c4c(C)cc(C(=O)N5CCC(CN6CCN(Cc7ccc8c(c7)C(C)(C)C(=O)N8C7CCC(=O)NC7=O)C[C@@H]6C)CC5)cc4F)CC2)n3C)c(=O)c1 (some centres unmarked) [Example 3u178]
Endpoint returns whichever of 1 and 2 has the numerically higher DC50. # reply format: chosen label
2
